Attribution: patent US20220298235A1

# system: T1, human p40-His (human, UniProt P29460 23-328)
# T1 construct: Made by Akeso Biopharma; construct limits and tag not described; also called human IL-12/IL-23 p40 protein domain; human IL-12/IL-23 p40; not shown: His tag
# T1 sequence (looked up): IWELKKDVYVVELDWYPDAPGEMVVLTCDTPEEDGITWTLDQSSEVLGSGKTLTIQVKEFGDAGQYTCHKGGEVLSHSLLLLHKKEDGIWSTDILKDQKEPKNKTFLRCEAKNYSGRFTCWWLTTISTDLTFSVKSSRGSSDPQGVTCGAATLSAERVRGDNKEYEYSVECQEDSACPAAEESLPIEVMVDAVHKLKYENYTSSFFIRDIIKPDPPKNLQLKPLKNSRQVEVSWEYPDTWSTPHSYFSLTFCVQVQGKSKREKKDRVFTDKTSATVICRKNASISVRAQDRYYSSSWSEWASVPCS
# experiment: BLI (Fortebio), p40-His on HIS1K sensor, antibody 5-0.31 nM, 37 °C, 1:1 fit
experimental.readout: S E(kdis) (s⁻¹)

[[record]]
binder = "H8L15 (antibody, human IgG1, kappa, V domains shown, human IgG1 (P01857) / kappa (P01834) constant regions; also called anti-human IL-12/IL-23 p40 antibody H8L15; H8L15H1L1) VH: EVQLVQSGAEVKKPGESLKISCQSSGYTFTSYWIGWVRQMPGQGLEWIGIMSPVDSDIRYNPMFRGQVTMSVDKSSSTAYLQWSSLKASDTAMYYCARRRPGQGYFDFWGQGTMVTVSS VL: EIVLTQSPATLSASPGERATISCRASQSVGTWVAWYQQKPGQAPRSLIYAASNLQSGIPARFSGSGSGTDFTLTISSLEPEDFAVYYCQQYNIYPYTFGQGTRLEIKR"
experimental_readout = "S E(kdis)"
unit_of_measurement = "s⁻¹"
assay_value = 0.000137

[[record]]
binder = "H5L9 (antibody, human IgG1, kappa, V domains shown, human IgG1 (P01857) / kappa (P01834) constant regions; also called humanized antibody H5L9) VH: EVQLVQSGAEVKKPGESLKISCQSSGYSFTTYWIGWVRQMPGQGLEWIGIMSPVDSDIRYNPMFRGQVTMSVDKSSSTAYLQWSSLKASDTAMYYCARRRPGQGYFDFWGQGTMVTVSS VL: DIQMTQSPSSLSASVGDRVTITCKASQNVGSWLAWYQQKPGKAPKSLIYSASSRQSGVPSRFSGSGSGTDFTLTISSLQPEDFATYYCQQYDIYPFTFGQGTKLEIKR"
experimental_readout = "S E(kdis)"
unit_of_measurement = "s⁻¹"
assay_value = 0.000307

[[record]]
binder = "H5L10 (antibody, human IgG1, kappa, V domains shown, human IgG1 / kappa constant regions; also called humanized antibody H5L10) VH: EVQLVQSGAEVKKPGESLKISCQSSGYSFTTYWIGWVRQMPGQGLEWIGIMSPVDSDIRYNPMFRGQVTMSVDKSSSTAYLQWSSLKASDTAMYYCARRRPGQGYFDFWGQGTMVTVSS VL: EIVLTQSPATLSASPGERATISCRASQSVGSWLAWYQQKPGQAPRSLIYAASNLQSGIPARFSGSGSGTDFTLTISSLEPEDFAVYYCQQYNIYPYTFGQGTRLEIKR"
experimental_readout = "S E(kdis)"
unit_of_measurement = "s⁻¹"
assay_value = 0.000222

